test system: Staphylococcus aureus X400; experiment: MIC, standard agar-dilution assay; type: cell-based
What MIC was measured for each of the following?

INSERT INTO assay_data (compound, measure, result) VALUES
  ('CCNC1(C)CC(OC2C(Oc3c4cc5cc3Oc3ccc(cc3Cl)C(O)C(NC(=O)C(CC(C)C)N(C)CC)C(=O)NC(CC(N)=O)C(=O)NC5C(=O)NC3C(=O)NC(C(=O)NC(C(=O)O)c5cc(O)cc(O)c5-c5cc3ccc5O)C(O)c3ccc(c(Cl)c3)O4)OC(CO)C(O)C2O)OC(C)C1O (centres unmarked)', 'MIC', '2 µg/mL');

Could you now consider this next compound?
Exam item: Look up and state reported MIC for CCCCCCCCc1ccc(CNC2(C)CC(OC3C(Oc4c5cc6cc4Oc4ccc(cc4Cl)C(O)C4NC(=O)C(NC(=O)C6NC(=O)C(CC(N)=O)NC(=O)C(NC(=O)C(CC(C)C)NC)C(O)c6ccc(c(Cl)c6)O5)c5ccc(O)c(c5)-c5c(O)cc(O)cc5C(C(=O)O)NC4=O)OC(CO)C(O)C3O)OC(C)C2O)cc1 (centres unmarked)
Marked response: 1 µg/mL

---

tested on: Haemophilus influenzae 76; test: MIC, standard agar-dilution assay; assay type: cell-based
What MIC was measured for each of the following?
Numbers only, in µg/mL.

INSERT INTO results (molecule, measure, numeric_result) VALUES
  ('CCCCCCCCCCNC1(C)CC(OC2C(Oc3c4cc5cc3Oc3ccc(cc3Cl)C(O)C3NC(=O)C(NC(=O)C5NC(=O)C(CC(N)=O)NC(=O)C(NC(=O)C(N)CC(C)C)C(O)c5ccc(c(Cl)c5)O4)c4ccc(O)c(c4)-c4c(O)cc(O)cc4C(C(=O)O)NC3=O)OC(CO)C(O)C2O)OC(C)C1O (stereo not drawn) [Compound 26, N^van --(n-decyl)-A51568A]', 'MIC', 128);

Exam item: Look up and state reported MIC for CCNC1(C)CC(OC2C(Oc3c4cc5cc3Oc3ccc(cc3Cl)C(O)C(NC(=O)C(CC(C)C)N(C)CC)C(=O)NC(CC(N)=O)C(=O)NC5C(=O)NC3C(=O)NC(C(=O)NC(C(=O)O)c5cc(O)cc(O)c5-c5cc3ccc5O)C(O)c3ccc(c(Cl)c3)O4)OC(CO)C(O)C2O)OC(C)C1O (stereo not drawn)
Marked response: 128

---

What MIC was measured for each of the following?
tested on: Klebsiella pneumoniae X68; assay: MIC, standard agar-dilution assay; assay type: cell-based

Below are worked cases with known answers.
INSERT INTO measurements (compound, result) VALUES
  ('CCCCNC1(C)CC(OC2C(Oc3c4cc5cc3Oc3ccc(cc3Cl)C(O)C3NC(=O)C(NC(=O)C5NC(=O)C(CC(N)=O)NC(=O)C(NC(=O)C(CC(C)C)NC)C(O)c5ccc(c(Cl)c5)O4)c4ccc(O)c(c4)-c4c(O)cc(O)cc4C(C(=O)O)NC3=O)OC(CO)C(O)C2O)OC(C)C1O (stereo not drawn) [Compound 17, N^van --(n-butyl)vancomycin]', '> 128 µg/mL'),
  ('CCCCCCCCOc1ccc(CNC2(C)CC(OC3C(Oc4c5cc6cc4Oc4ccc(cc4Cl)C(O)C4NC(=O)C(NC(=O)C6NC(=O)C(CC(N)=O)NC(=O)C(NC(=O)C(CC(C)C)NC)C(O)c6ccc(c(Cl)c6)O5)c5ccc(O)c(c5)-c5c(O)cc(O)cc5C(C(=O)O)NC4=O)OC(CO)C(O)C3O)OC(C)C2O)cc1 (stereo not drawn) [Example 94, N^van --( -p-octyloxybenzyl)vancomycin]', '> 128 µg/mL');

Could you now consider this next compound?
Exam item: Look up and state reported MIC for CCCCCCCCNC1(C)CC(OC2C(Oc3c4cc5cc3Oc3ccc(cc3Cl)C(O)C3NC(=O)C(NC(=O)C5NC(=O)C(CC(N)=O)NC(=O)C(NC(=O)C(CC(C)C)NC)C(O)c5ccc(c(Cl)c5)O4)c4ccc(O)c(c4)-c4c(O)cc(O)cc4C(C(=O)O)NC3=O)OC(CO)C(O)C2O)OC(C)C1O (stereo not drawn) [Compound 7, N^van --(n-octyl)vancomycin]
Marked response: > 128 µg/mL
